- testedOn: bovine testis hyaluronidase (Bos taurus, UniProt Q2YDK3)
- Construct: purchased Sigma–Aldrich GmbH (Steinheim, Germany); host or cells: bovine testis
- Sequence (Q2YDK3 36-553): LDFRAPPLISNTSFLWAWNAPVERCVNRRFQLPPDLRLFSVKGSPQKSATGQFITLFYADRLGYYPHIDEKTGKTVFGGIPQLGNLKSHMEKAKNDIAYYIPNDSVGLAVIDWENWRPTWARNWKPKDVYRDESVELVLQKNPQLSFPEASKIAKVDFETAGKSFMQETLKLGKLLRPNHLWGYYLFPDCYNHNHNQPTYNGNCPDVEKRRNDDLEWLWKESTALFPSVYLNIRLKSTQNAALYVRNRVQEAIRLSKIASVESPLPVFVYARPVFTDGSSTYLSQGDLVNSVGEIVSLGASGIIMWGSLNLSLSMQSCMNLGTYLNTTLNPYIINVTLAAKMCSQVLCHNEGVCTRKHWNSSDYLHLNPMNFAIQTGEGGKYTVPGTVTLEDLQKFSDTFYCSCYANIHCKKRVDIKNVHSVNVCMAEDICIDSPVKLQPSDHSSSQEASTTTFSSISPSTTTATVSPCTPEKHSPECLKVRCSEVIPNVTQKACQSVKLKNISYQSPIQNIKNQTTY
- procedureText: Hyaluronidase activity, USP turbidimetric method modified
- Format: biochemical
- statedConditions: 5 μM; % of 100% active enzyme control
# Hyaluronidase activity Mean(%) values compiled below
measuredParameter: Hyaluronidase activity Mean(%)

>>> val("O=C(OC1COC(=O)c2cc(O)c(O)c(O)c2-c2c(cc(O)c(O)c2O)C(=O)OC1C1OC(=O)c2cc(O)c(O)c(O)c2-c2c(O)c(O)c(O)c3c2C(=O)OC1C3O)c1cc(O)c(O)c(O)c1Oc1cc2c(c(O)c1O)-c1c(cc(O)c(O)c1O)C(=O)OCC1OC(=O)c3cc(O)c(O)c(O)c3-c3c(O)c(O)c(O)c4c3C(=O)OC(C1OC2=O)C1OC(=O)c2c-4c(O)c(O)c(O)c2C1O (centres unmarked) [SA, salicarinin A]")
"0,50%"
>>> val("O=C(OC1COC(=O)c2cc(O)c(O)c(O)c2-c2c(cc(O)c(O)c2O)C(=O)OC1C1OC(=O)c2cc(O)c(O)c(O)c2-c2c(O)c(O)c(O)c3c2C(=O)OC1C3O)c1cc(O)c(O)c(O)c1Oc1cc2c(c(O)c1O)-c1c(cc(O)c(O)c1O)C(=O)OCC1OC(=O)c3cc(O)c(O)c(O)c3-c3c(O)c(O)c(O)c4c3C(=O)OC(C1OC2=O)C1OC(=O)c2c-4c(O)c(O)c(O)c2C1O (centres unmarked) [SC, salicarinin C]")
"8,00%"
>>> val("O=C(OC1COC(=O)c2cc(O)c(O)c(O)c2-c2c(cc(O)c(O)c2O)C(=O)OC1C1OC(=O)c2cc(O)c(O)c(O)c2-c2c(O)c(O)c(O)c3c2C(=O)OC1C3O)c1cc(O)c(O)c(O)c1Oc1cc2c(c(O)c1O)-c1c(cc(O)c(O)c1O)C(=O)OCC1OC(=O)c3cc(O)c(O)c(O)c3-c3c(O)c(O)c(O)c4c3C(=O)OC(C1OC2=O)C1OC(=O)c2c-4c(O)c(O)c(O)c2C1O (centres unmarked) [SB, salicarinin B]")
"-0,07%"
>>> val("O=C1OC[C@H]2OC(=O)c3cc(O)c(O)c(O)c3-c3c(O)c(O)c(O)c4c3C(=O)O[C@H]([C@H]3OC(=O)c5c-4c(O)c(O)c(O)c5[C@H]3O)[C@@H]2OC(=O)c2cc(O)c(O)c(O)c2-c2c1cc(O)c(O)c2O")
"19,92%"
>>> val("O=C1OCC2OC(=O)c3cc(O)c(O)c(O)c3-c3c(O)c(O)c(O)c4c3C(=O)OC(C2OC(=O)c2cc(O)c(O)c(O)c2-c2c1cc(O)c(O)c2O)C1OC(=O)c2c-4c(O)c(O)c(O)c2C1O (centres unmarked)")
"18,39%"
